Source listed as ChEMBL document CHEMBL1125259.

As shown below, each of these molecules has a reported CC50 value.
# Test system: CCRF-CEM
# methodSummary: Concentration required to reduce the viability of uninfected cells (CEM-CL13) by 50% on day 7.
# Format: functional
# settings: Homo sapiens, 168 h, read-out: CD50 (the source's name)
Note: unit µM is implicit; provide only the numeric part.

Some molecules with known CC50 results, for comparison:
{"columns": ["molecule", "CC50 [µM]"],
 "data": [
  ["Cc1cn([C@H]2C[C@H](N=[N+]=[N-])[C@@H](COP(=O)(O)OC[C@H]3OC(O)[C@H](O)[C@@H](O)[C@@H]3O)O2)c(=O)[nH]c1=O (stereo partly drawn)", 30],
  ["CCCCCCCCCCCCCCCCOP(=O)(OCCO[C@H]1O[C@H](CO)[C@@H](O)[C@H](O)[C@@H]1O)OCC1OC(n2cc(C)c(=O)[nH]c2=O)CC1N=[N+]=[N-] (stereo partly drawn)", 20]
]}

Here is another molecule to look at.
Query: Give CC50 for CCCCCCCCCCCCCCCCOP(=O)(OC[C@H]1OC(O)[C@@H](O)[C@@H](O)[C@@H]1O)OC[C@H]1OC(n2cc(C)c(=O)[nH]c2=O)C[C@@H]1N=[N+]=[N-] (stereo partly drawn) tested on CCRF-CEM.
Reply: 2.6

----------
# studyTarget: Human immunodeficiency virus type 1 reverse transcriptase (Human immunodeficiency virus 1) (UniProt Q72547)
# methodSummary: Compounds were evaluated for anti-RT activity by MTT dose and %protection was reported at 13 days of culture
# Assay type: functional
Class condition met: Protection at least 7%. Class condition not met: Protection below 7%.

Example results:
{"columns": ["compound", "assignedClass"],
 "data": [
  ["CCCCCCCCCCCCCCCCOP(=O)(OC[C@H]1OC(O)[C@@H](O)[C@@H](O)[C@@H]1O)OC[C@H]1OC(n2cc(C)c(=O)[nH]c2=O)C[C@@H]1N=[N+]=[N-] (some centres not stated)", "condition met"],
  ["Cc1cn([C@H]2C[C@H](N=[N+]=[N-])[C@@H](CO)O2)c(=O)[nH]c1=O", "condition met"]
]}

In the following, a different compound is considered.
Query: Check this compound for Protection at or above 7%: Cc1cn([C@H]2C[C@H](N=[N+]=[N-])[C@@H](COP(=O)(O)OC[C@H]3OC(O)[C@@H](O)[C@@H](O)[C@@H]3O)O2)c(=O)[nH]c1=O (some centres not stated)
Reply: condition not met

----------
# studyTarget: Human immunodeficiency virus type 1 reverse transcriptase (Human immunodeficiency virus 1) (UniProt Q72547)
# methodSummary: Compounds were evaluated for anti-RT activity by MTT dose and % cell / viability was reported at 9 days of culture
# Format: functional
As shown below, each of these compounds has a reported Cell viability value.
Lab note: write values as number then unit, every time.

Some compounds with known Cell viability results, for comparison:
{"columns": ["compound", "assayValue"],
 "data": [
  ["CCCCCCCCCCCCCCCCOP(=O)(OCCO[C@H]1O[C@H](CO)[C@@H](O)[C@H](O)[C@@H]1O)OCC1OC(n2cc(C)c(=O)[nH]c2=O)CC1N=[N+]=[N-] (some centres not stated)", "25%"],
  ["Cc1cn([C@H]2C[C@H](N=[N+]=[N-])[C@@H](COP(=O)(O)OC[C@H]3OC(O)[C@@H](O)[C@@H](O)[C@@H]3O)O2)c(=O)[nH]c1=O (some centres not stated)", "36%"],
  ["Cc1cn([C@H]2C[C@H](N=[N+]=[N-])[C@@H](COP(=O)(O)OCCO[C@H]3O[C@H](CO)[C@@H](O)[C@H](O)[C@@H]3O)O2)c(=O)[nH]c1=O", "28%"],
  ["CCCCCCCCCCCCCCCCOP(=O)(OC[C@H]1OC(O)[C@H](O)[C@@H](O)[C@@H]1O)OC[C@H]1OC(n2cc(C)c(=O)[nH]c2=O)C[C@@H]1N=[N+]=[N-] (some centres not stated)", "62%"],
  ["CCCCCCCCCCCCCCCCOP(=O)(OC[C@H]1OC(O)[C@@H](O)[C@@H](O)[C@@H]1O)OC[C@H]1OC(n2cc(C)c(=O)[nH]c2=O)C[C@@H]1N=[N+]=[N-] (some centres not stated)", "32%"]
]}

Query: Give Cell viability for the following compound: Cc1cn([C@H]2C[C@H](N=[N+]=[N-])[C@@H](CO)O2)c(=O)[nH]c1=O
Reply: 79%

Query: Give Cell viability for the following compound: Cc1cn([C@H]2C[C@H](N=[N+]=[N-])[C@@H](COP(=O)(O)OC[C@H]3OC(O)[C@H](O)[C@@H](O)[C@@H]3O)O2)c(=O)[nH]c1=O (some centres not stated)
Reply: 34%

----------
# studyTarget: Human immunodeficiency virus type 1 reverse transcriptase (Human immunodeficiency virus 1)
# methodSummary: Compound ability to inhibit the production of HIV reverse transcriptase (RT) in culture supernatant of monocytic U937 on at 11 days at a concentration 5 uM
# Assay type: functional
As shown below, each of these molecules has a reported Activity (c.p.m. 50ul-1) value.
# output: bare number, no unit

{"columns": ["molecule", "assayValue"],
 "data": [
  ["Cc1cn([C@H]2C[C@H](N=[N+]=[N-])[C@@H](COP(=O)(O)OCCO[C@H]3O[C@H](CO)[C@@H](O)[C@H](O)[C@@H]3O)O2)c(=O)[nH]c1=O", 192000],
  ["Cc1cn([C@H]2C[C@H](N=[N+]=[N-])[C@@H](COP(=O)(O)OC[C@H]3OC(O)[C@H](O)[C@@H](O)[C@@H]3O)O2)c(=O)[nH]c1=O (some centres undefined)", 211000],
  ["Cc1cn([C@H]2C[C@H](N=[N+]=[N-])[C@@H](COP(=O)(O)OC[C@H]3OC(O)[C@@H](O)[C@@H](O)[C@@H]3O)O2)c(=O)[nH]c1=O (some centres undefined)", 193000]
]}

Here is another molecule to look at.
Query: Give Activity (c.p.m. 50ul-1) for Cc1cn([C@H]2C[C@H](N=[N+]=[N-])[C@@H](CO)O2)c(=O)[nH]c1=O tested on Human immunodeficiency virus type 1 reverse transcriptase (Human immunodeficiency virus 1).
Reply: 118000

----------
As shown below, each of these molecules has a reported Activity (c.p.m. 50ul-1) value.
# studyTarget: Human immunodeficiency virus type 1 reverse transcriptase (Human immunodeficiency virus 1) (UniProt Q72547)
# methodSummary: Compound ability to inhibit the production of HIV reverse transcriptase (RT) in culture supernatant of monocytic U937 on at 11 days at a concentration 1 uM
# Type: functional
# output: bare number, no unit

Query: Give Activity (c.p.m. 50ul-1) for the following molecule: Cc1cn([C@H]2C[C@H](N=[N+]=[N-])[C@@H](CO)O2)c(=O)[nH]c1=O
Reply: 134000

Query: Give Activity (c.p.m. 50ul-1) for the following molecule: Cc1cn([C@H]2C[C@H](N=[N+]=[N-])[C@@H](COP(=O)(O)OCCO[C@H]3O[C@H](CO)[C@@H](O)[C@H](O)[C@@H]3O)O2)c(=O)[nH]c1=O
Reply: 174000

Query: Give Activity (c.p.m. 50ul-1) for the following molecule: CCCCCCCCCCCCCCCCOP(=O)(OCCO[C@H]1O[C@H](CO)[C@@H](O)[C@H](O)[C@@H]1O)OCC1OC(n2cc(C)c(=O)[nH]c2=O)CC1N=[N+]=[N-] (stereo partly drawn)
Reply: 243000

----------
# studyTarget: Human immunodeficiency virus type 1 reverse transcriptase (Human immunodeficiency virus 1) (UniProt Q72547)
# methodSummary: Compounds were evaluated for anti-RT activity by MTT dose and % cell / viability was reported at 13 days of culture
# Format: functional
As shown below, each of these compounds has a reported Cell viability value.
Note: unit % is implicit; provide only the numeric part.

{"columns": ["compound", "Cell viability, %"],
 "data": [
  ["Cc1cn([C@H]2C[C@H](N=[N+]=[N-])[C@@H](COP(=O)(O)OCCO[C@H]3O[C@H](CO)[C@@H](O)[C@H](O)[C@@H]3O)O2)c(=O)[nH]c1=O", 20],
  ["Cc1cn([C@H]2C[C@H](N=[N+]=[N-])[C@@H](COP(=O)(O)OC[C@H]3OC(O)[C@@H](O)[C@@H](O)[C@@H]3O)O2)c(=O)[nH]c1=O (stereo partly drawn)", 18]
]}

Here is another compound to look at.
Query: Give Cell viability for the following compound: CCCCCCCCCCCCCCCCOP(=O)(OC[C@H]1OC(O)[C@@H](O)[C@@H](O)[C@@H]1O)OC[C@H]1OC(n2cc(C)c(=O)[nH]c2=O)C[C@@H]1N=[N+]=[N-] (stereo partly drawn)
Reply: 25

----------
# studyTarget: Human immunodeficiency virus type 1 reverse transcriptase (Human immunodeficiency virus 1) (UniProt Q72547)
# methodSummary: Compound ability to inhibit the production of HIV reverse transcriptase (RT) in culture supernatant of CEM-CL13 on at 15 days at a concentration 0.2 uM
# Assay type: functional
measurementLabel: Activity (c.p.m. 50ul-1)

Some compounds with known Activity (c.p.m. 50ul-1) results, for comparison:
{"columns": ["compound", "Activity (c.p.m. 50ul-1)"],
 "data": [
  ["CCCCCCCCCCCCCCCCOP(=O)(OCCO[C@H]1O[C@H](CO)[C@@H](O)[C@H](O)[C@@H]1O)OCC1OC(n2cc(C)c(=O)[nH]c2=O)CC1N=[N+]=[N-] (some centres not stated)", 2400],
  ["Cc1cn([C@H]2C[C@H](N=[N+]=[N-])[C@@H](COP(=O)(O)OCCO[C@H]3O[C@H](CO)[C@@H](O)[C@H](O)[C@@H]3O)O2)c(=O)[nH]c1=O", 2600],
  ["CCCCCCCCCCCCCCCCOP(=O)(OC[C@H]1OC(O)[C@H](O)[C@@H](O)[C@@H]1O)OC[C@H]1OC(n2cc(C)c(=O)[nH]c2=O)C[C@@H]1N=[N+]=[N-] (some centres not stated)", 1600],
  ["Cc1cn([C@H]2C[C@H](N=[N+]=[N-])[C@@H](COP(=O)(O)OC[C@H]3OC(O)[C@H](O)[C@@H](O)[C@@H]3O)O2)c(=O)[nH]c1=O (some centres not stated)", 750],
  ["Cc1cn([C@H]2C[C@H](N=[N+]=[N-])[C@@H](COP(=O)(O)OC[C@H]3OC(O)[C@@H](O)[C@@H](O)[C@@H]3O)O2)c(=O)[nH]c1=O (some centres not stated)", 1700]
]}

Query: Give Activity (c.p.m. 50ul-1) for the following compound: Cc1cn([C@H]2C[C@H](N=[N+]=[N-])[C@@H](CO)O2)c(=O)[nH]c1=O
Reply: 1100

Query: Give Activity (c.p.m. 50ul-1) for the following compound: CCCCCCCCCCCCCCCCOP(=O)(OC[C@H]1OC(O)[C@@H](O)[C@@H](O)[C@@H]1O)OC[C@H]1OC(n2cc(C)c(=O)[nH]c2=O)C[C@@H]1N=[N+]=[N-] (some centres not stated)
Reply: 1700
